FYI, the data here is from ChEMBL document CHEMBL4513216.

test: Toxicity liver stage against HepG2, at 10uM; format: cell-based; design: test concentration 10 uM, cell line HepG2-A16-CD81EGFP; details: human, HepG2-A16-CD81EGFP cells; read-out: INHIBITION
Listed molecules paired with reported cytotoxicity at 10 µM
Answer in %, number only, no unit symbol.

Example entries and their recorded answers appear below.
Cc1ccc(-c2noc(C(C)(C)NS(C)(=O)=O)n2)cc1F; 2.77
Cc1nc(CCC(=O)NC2CCC2)cc(C2CCNCC2)n1; -5.15
CC(=O)N(Cc1noc(C)n1)C1CCN(CC2CCCC2)C1 (stereo not drawn); -12.3
CN(Cc1ccccc1)C(=O)CN1CCOC(Cn2cncn2)C1 (stereo not drawn); -3.66
COc1cc(N(C)Cc2cc(C(C)(C)C)n[nH]2)ncn1; -11.1
c1nc2c(c(N3CCCC(Cn4cncn4)C3)n1)CCC2 (stereo not drawn); 52.4
CCc1c(C)nn(CCNC(=O)c2cc(C3CC3)n[nH]2)c1C; -12.1
CC(CN1CCOCC1)n1cncc1-c1ccc2c(c1)CCCN2C (stereo not drawn); 12.3
O=C(Nc1cccc(OCC(F)F)n1)c1ccncc1F; -3.33
CCn1nc(C)cc1C(=O)N1CCOc2cc(C)ccc21; 10.5

Attention now shifts to the item below.
# input // returns reported cytotoxicity at 10 µM for input CCc1nc(CN(C)C2CCN(CC(F)(F)F)C2)no1 (stereo not drawn)
# output -16.8

---

Measured cytotoxicity at 10 µM, listed per entry.
assay: Toxicity liver stage against HepG2, at 10uM; assay type: cell-based; set-up: test concentration 10 uM, cell line HepG2-A16-CD81EGFP; conditions: human, HepG2-A16-CD81EGFP cells; read-out: INHIBITION
Record the value in %, omitting the unit from your answer.

COCCNC(=O)[C@@]12CCO[C@@H]1CCN(Cc1cc(C)on1)C2; -69.8
Cc1[nH]ncc1C(=O)N1CCOC(c2cccs2)C1 (centres undefined); 8.8
Cc1ccc(C2CCCCCN2CCCS(C)(=O)=O)o1 (centres undefined); -4.3
CNC(=O)CN1CCOCC2(C1)CN(Cc1csnn1)CCO2 (centres undefined); -89.3
COc1ccc2cnn(CC(=O)NCC3CCCO3)c(=O)c2c1OC (centres undefined); 4.81
CCS(=O)(=O)N1CCCC2(CCCN2Cc2cccc(F)c2)C1 (centres undefined); -141

# input Name the recorded cytotoxicity at 10 µM for O=C(c1ccccn1)N1CCc2c(nc(N3CCCC3)[nH]c2=O)C1 .
# output -5.71

# input Need cytotoxicity at 10 µM of CC1CCCCN1C1CN(c2nc(C3CCCC3)nc3c2cnn3C)C1 (centres undefined) , thanks.
# output -0.699

# input Reported cytotoxicity at 10 µM, molecule COc1cc(C)nc(N2CCN(C(=O)c3ccc[nH]3)CC2)n1 : ____
# output -5.11

# input What does the data say about its cytotoxicity at 10 µM? Entry: CCC1=N[C@@]2(CC[C@@H]3CN(CC(=O)N(C)C)C[C@@H]32)C(=O)N1CC(C)C
# output 8.18

---

Reported cytotoxicity at 10 µM values follow for various molecules
assay: Toxicity liver stage against HepG2, at 10uM; assay type: cell-based; parameters: test concentration 10 uM, cell line HepG2-A16-CD81EGFP; details: human, HepG2-A16-CD81EGFP cells; read-out: INHIBITION
State just the number; it will be interpreted in %.

Solved entries:
CC(=O)NC1CCN(c2cc(-c3ccccc3)nc3c(C)c(C)nn23)C1 (stereo unspecified); -3.98
O=C(NCC1CCCOC1)c1ccc(-c2cccs2)[nH]c1=O (stereo unspecified); -3.67
CC(NC(=O)c1ccc(C#N)cn1)C1(N2CCOCC2)CCCC1 (stereo unspecified); 2.54
CN(CCc1ccc2c(c1)CCO2)CC1CCS(=O)(=O)C1 (stereo unspecified); 7.33
Cc1nccn1-c1cccc(C2CCCN(C3CCCC3)C2)n1 (stereo unspecified); -12.7

Proceed to the following item.
# input Give its cytotoxicity at 10 µM value. Item: Cn1cc(CN2CCC(Cn3cc(-c4ccccc4)nn3)CC2)cn1
# output 9.47

---

Reported cytotoxicity at 10 µM values follow for various compounds
assay: Toxicity liver stage against HepG2, at 10uM; assay type: cell-based; set-up: test concentration 10 uM, cell line HepG2-A16-CD81EGFP; conditions: human, HepG2-A16-CD81EGFP cells; read-out: INHIBITION
Numeric only. Scale: %

A selection of reference data follows.
O=C(C[S+]([O-])Cc1c(Cl)cccc1Cl)N1CCc2sccc2C1 (centres undefined); -7.23
Nc1ncc(-c2csc(NC(=O)C[C@H]3COCCN3)n2)cn1; -2.83
CN1C[C@@H](n2cnc(-c3ccccc3)c2-c2nccn2C)C[C@H]1C(=O)O; -0.338
Cc1ccnc(CC(C)N(C)Cc2ccc3c(c2)OCCO3)c1 (centres undefined); -4.24
Cc1ccc(C(=O)N2CCC3(CC2)COC(COc2ccccn2)C3)o1 (centres undefined); -0.954
CSCc1noc(C2CCC(=O)N(CCCN3CCCC3=O)C2)n1 (centres undefined); 3.59
CN(C)CCN(Cc1cccc(F)c1)C(=O)c1ccn(C)c(=O)c1; -3.92
OCc1ccc(-c2nccn2CCC2=CCCCC2)o1; 4.19

# input What cytotoxicity at 10 µM value was documented for this compound, CCOc1cccc2c1OCC(C(=O)NS(=O)(=O)c1ccc(Cl)cc1)=C2 ?
# output -11.1

# input Fill in the blank: the reported cytotoxicity at 10 µM of Cc1nc(C)n(CC2CN(CCOc3cccc(C#N)c3)CCO2)n1 (centres undefined) is ____.
# output -13.2

# input Name the reported cytotoxicity at 10 µM value associated with the compound CN(C)C(=O)COC[C@]12COC[C@H]1CN(Cc1ccco1)C2
# output -0.522

# input Which cytotoxicity at 10 µM value belongs to Cc1cc(C(F)(F)F)nn1CC(C)C(=O)Nc1ccncc1 (centres undefined) ?
# output -2.13

# input Report cytotoxicity at 10 µM for COc1cc2c(cc1CNC(Cc1cccs1)c1nccs1)OCCO2 (centres undefined) please.
# output -1.6

# input Consider the compound COCc1noc(CN2CC(Cc3ccccc3)CC2=O)n1 (centres undefined) and give its measured cytotoxicity at 10 µM.
# output -0.472

# input # query: cytotoxicity at 10 µM of entry Cc1nc(N)sc1C(=O)N1CCCC(c2nccn2CCCN(C)C)C1 (centres undefined)
# output -6.82

# input Which cytotoxicity at 10 µM is reported for this compound? OCc1ccc(CN(CCCn2ccnc2)Cc2cccnc2)o1
# output -6.75

# input So what does the record say about cytotoxicity at 10 µM for CC(C)N(C)C(=O)C1=NOC2(CCN(C(=O)c3ccnnc3)C2)C1 (centres undefined) ?
# output -119

---

experiment: Toxicity liver stage against HepG2, at 10uM; format: cell-based; design: test concentration 10 uM, cell line HepG2-A16-CD81EGFP; settings: human, HepG2-A16-CD81EGFP cells; read-out: INHIBITION
Here the recorded cytotoxicity at 10 µM is given for each entry.
A number alone suffices; assume %.

These recorded examples may help you get a feel for the data.
CCc1nc(CC(=O)Nc2cnn(CC3CCCO3)c2)cs1 (centres undefined); -3.11
COc1ccc(NC(=O)NC(C)c2nc[nH]n2)cc1 (centres undefined); -7.71
COCC1CCN(S(=O)(=O)N2C[C@@H](C)[C@@](C)(O)C2)CC1; 3.45
CC(O)c1cnn(-c2ccccc2)c1 (centres undefined); -1.55
Cc1nnc2n1CCN(Cc1csc(-c3ccc(F)cc3)n1)C2; -6.78
CC(NC(=O)Cc1cccs1)c1nnc2n1CCCCC2 (centres undefined); -15.5
CC(C)CN1CC[C@@H]2[C@@H]1CCN2C(=O)N(C)C; -0.88
Cc1nccn1CCNC(=O)C1(C)CC(c2ccccc2)=NO1 (centres undefined); 8.46
COCCn1ccc(NC(=O)Nc2ccc(C(N)=O)c(F)c2)n1; 2.63
Cc1cc(C2CCCN2Cc2ccc(C(=O)Nc3nccs3)cc2)on1 (centres undefined); -6.03

# input Quick one: cytotoxicity at 10 µM of NC(=O)CN1C(=O)CO[C@H]2CN(Cc3ccc(F)c(F)c3)C[C@H]21 ?
# output 2.44

# input Recorded cytotoxicity at 10 µM for O=C(CCN1C[C@H]2CC[C@@H]1C2)N1CCN(c2cccc(Cl)c2)C(=O)C1 , please?
# output 1.4

# input So what's the measured cytotoxicity at 10 µM for this one? CCc1ccsc1C(=O)NC(Cc1ccccc1)C(N)=O (centres undefined)
# output 9.01

# input Look at this molecule and give its reported cytotoxicity at 10 µM. COc1ccc(C2(NC(=O)c3ccc(=O)n(C)n3)CCCC2)cc1
# output -0.308

# input # get_value(readout='cytotoxicity at 10 µM', item= COc1ccc(NC(C)c2nnnn2-c2ccccc2)cn1 (centres undefined) )
# output 3.99

# input What cytotoxicity at 10 µM value was documented for this molecule, O=C(CCNS(=O)(=O)c1cccnc1)N1CCOC(c2ccccc2)C1 (centres undefined) ?
# output 5.11
